Kindly state Residual NO production for each of the entries shown.
Test system: RAW264.7
assay_explanation: Inhibition of LPS-induced NO production in mouse RAW264.7 cells assessed as NO production activity at 10 uM by Griess reagent based assay
Format: functional
Numbers only, in %.

>>> print(df.to_string())
                                   compound  assay_result
0  CC(C)=CCc1c(OCC(=O)N2CCOCC2)ccc2ccc(=O)oc12          74.1

Please supply Residual NO production for each of the following items, keeping them in order.
1. CC(C)=CCc1c(OCC(=O)N2CCN(C(=O)OC(C)(C)C)CC2)ccc2ccc(=O)oc12
2. CC(C)(O)C1Cc2c(ccc3cc(-c4ccccc4F)c(=O)oc23)O1 (configuration not stated)
3. COc1ccc2c(c1)c(CC(=O)O)c(C)n2C(=O)c1ccc(Cl)cc1
4. CC(C)=CCc1c(OCC(=O)N2CCCC2)ccc2ccc(=O)oc12
5. COc1ccc2ccc(=O)oc2c1CC=C(C)C
6. CC(C)(O)C1Cc2c(ccc3cc(-c4cccc(F)c4)c(=O)oc23)O1 (configuration not stated)
7. COc1cccc(-c2cc3ccc4c(c3oc2=O)CC(C(C)(C)O)O4)c1 (configuration not stated)

Key:
1: 62.8; 2: 85.2; 3: 53.2; 4: 75.4; 5: 85.6; 6: 106.2; 7: 73.3

Please supply Residual NO production for each of the following items, keeping them in order.
1. COc1ccc(CNC(=O)Oc2ccc3ccc(=O)oc3c2CC=C(C)C)cc1
2. CC(C)=CCc1c(OCC(=O)Nc2ccc(N3CCCC3)cc2)ccc2ccc(=O)oc12
3. CC(C)=CCc1c(OCC(=O)Nc2ccc(N3CCOCC3)cn2)ccc2ccc(=O)oc12
4. CCN1CCN(C(=O)COc2ccc3ccc(=O)oc3c2CC=C(C)C)CC1

Key:
1. 77.4
2. 50.4
3. 80.3
4. 72.3

====

Kindly state Activity for each of the entries shown.
Test system: SH-SY5Y
assay_explanation: Neuroprotection against H202-induced oxidative stress in human SH-SY5Y cells assessed as increase in cell viability at 10 uM by MTT assay
Format: functional
Numbers only, in %.

In [3]: df
Out[3]:
                                   compound  study_system  reported_endpoint  units_text  assay_result
0  CC(C)=CCc1c(OCC(=O)N2CCNCC2)ccc2ccc(=O)oc12       SH-SY5Y           Activity           %          29.2
1  COc1ccc(CNC(=O)Oc2ccc3ccc(=O)oc3c2CC=C(C)C)cc1       SH-SY5Y           Activity           %          28.7
2  CC(C)=CCc1c(OCC(=O)Nc2ccc(N3CCNCC3)cn2)ccc2ccc(=O)oc12       SH-SY5Y           Activity           %          44.5
3  CC(C)=CCc1c(OCC(=O)Nc2ccc(N3CCOCC3)cn2)ccc2ccc(=O)oc12       SH-SY5Y           Activity           %          43.5
4  CC(C)=CCc1c(OC(=O)NC2CCCCC2)ccc2ccc(=O)oc12       SH-SY5Y           Activity           %            13
5  COc1cccc(-c2cc3ccc4c(c3oc2=O)CC(C(C)(C)O)O4)c1 (stereo not given)       SH-SY5Y           Activity           %            31
6  CC(C)=CCc1c(OCC(=O)Nc2ccc(N3CCCC3)cc2)ccc2ccc(=O)oc12       SH-SY5Y           Activity           %          47.7
7  CC(C)(O)C1Cc2c(ccc3cc(-c4ccccc4)c(=O)oc23)O1 (stereo not given)       SH-SY5Y           Activity           %          19.7
8  CC(C)=CCc1c(OCC(=O)Nc2ccc(N3CCCC3)cn2)ccc2ccc(=O)oc12       SH-SY5Y           Activity           %          45.2

Please find the next compound below.
Exercise: Retrieve Activity on SH-SY5Y; query CC(C)(O)C1Cc2c(ccc3cc(-c4ccc(F)cc4)c(=O)oc23)O1 (stereo not given)
Key: 21.3

====

Kindly state Activity for each of the entries shown.
System: SH-SY5Y
assay_explanation: Neuroprotection against H202-induced oxidative stress in human SH-SY5Y cells assessed as increase in cell viability at 10 uM by MTT assay
Type: functional
One number for each entry, in %.

>>> df
                                   molecule  study_system  units_text  assay_result
0  CC(C)=CCc1c(OCC(=O)Nc2ccc(N3CCCCC3)cc2)ccc2ccc(=O)oc12       SH-SY5Y           %          12.5
1  CC(C)(O)C1Cc2c(ccc3cc(-c4cccc(F)c4)c(=O)oc23)O1 (configuration not stated)       SH-SY5Y           %            29
2  CC(C)=CCc1c(OCC(=O)N2CCOCC2)ccc2ccc(=O)oc12       SH-SY5Y           %          31.5

Please supply Activity for each of the following items, keeping them in order.
1. CC(C)=CCc1c(OCC(=O)Nc2ccc(N3CCOCC3)cc2)ccc2ccc(=O)oc12
2. CC(C)=CCc1c(OCC(=O)Nc2ccc(N3CCCCC3)cn2)ccc2ccc(=O)oc12

Key:
1: 39.5; 2: 32.7

Please supply Activity for each of the following items, keeping them in order.
1. CC(C)=CCc1c(OCC(=O)N2CCN(C(=O)OC(C)(C)C)CC2)ccc2ccc(=O)oc12
2. CC(C)=CCc1c(OCC(=O)Nc2ccc(N3CCNCC3)cc2)ccc2ccc(=O)oc12
3. CC(C)=CCc1c(OCC(=O)N2CCCCC2)ccc2ccc(=O)oc12
4. CC(C)(O)C1Cc2c(ccc3cc(-c4ccccc4F)c(=O)oc23)O1 (configuration not stated)
5. Cc1ccc(-c2cc3ccc4c(c3oc2=O)CC(C(C)(C)O)O4)cc1 (configuration not stated)
6. CCN1CCN(C(=O)COc2ccc3ccc(=O)oc3c2CC=C(C)C)CC1

Key:
45.7
22.5
5.5
36.5
18.2
33.7

Exercise: Please give the documented Activity of `CC(C)=CCc1c(OCC(=O)N2CCCC2)ccc2ccc(=O)oc12`
Key: 28
